Hey, just so you know, these numbers are from patent US20180208664A1.

# tested_system: T1, APG293 (human CD95L-T4) (human)
# T1 chain: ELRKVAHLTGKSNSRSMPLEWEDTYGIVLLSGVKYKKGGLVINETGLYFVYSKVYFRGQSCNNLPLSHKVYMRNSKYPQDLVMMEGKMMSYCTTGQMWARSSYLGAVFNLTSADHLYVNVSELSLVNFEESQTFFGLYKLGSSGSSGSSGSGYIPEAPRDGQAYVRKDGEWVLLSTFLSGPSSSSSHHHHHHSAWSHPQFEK
# protocol_description: cell-based or functional assay
quantity_kind: EC50, Mean: antagonism of CD95L-T4-induced apoptosis on Jurkat A3 cells (µg/mL)

INSERT INTO measurements (binder, observed_measurement) VALUES
  ('scFv-minibody SEQ ID 48 (scFv) scFv: QSLEESGGDLVKPGGTLTLTCTTSGFSFSDHYWMCWVRQAPGKGLEWIACIYTADSDSYYASWAKGRFTISKTSSTTVTLQMTSLTAADTATYFCARNGAYAGGPYGDLWGPGTLVTVSGGGSGGGSGGGSGGGSDIVMTQTPSSVEAAVGGTVTIKCQASQSIRTSLVWYQQKPGQPPKLLIYKASDLPSGVPSRFKGSGSGTQFTLTISDLESADAATYYCQSYDFRDTINNGHSFGGGTEVVVKGSGSSGQPREPQVYTLPPSREEMTKNQVSLTCLVKGFYPSDIAVEWESQGSPENNYKTTPPVLDSDGSFFLYSKLTVDKSRWQQGNVFSCSVMHEALHNHYTQKSLSLSPGSSSSSSAWSHPQFEK', 0.097),
  ('rabbit monoclonal anti-CD95L antibody clone 145-12 (antibody, V domains shown, Rabbit monoclonal IgG from a hybridoma subclone; Only VH and VL are tied to the clone by name; also called mAB145-12; mAb145-12) VH: QSLEESGGDLVKPGASLTLTCTASGFSFSSGYDMCWVRQAPGKGLEWIACIDTDNDATYYASWAKGRFTISKPSSTTVLLQITSLTAADTATYFCATTHGDYVAFKLWGPGTLVTVSS VL: QVLTQTASSVSAAVGGTVTINCQSSQSVYKNNDLSWYQQKPRQPPKLLIYQASKLASGVPSRFKGSGSGTQFTLTIGDLECDDGATYYCAGGYTASIYAFGGGTEVVVKG', 0.201),
  ('scFv-minibody SEQ ID 49 (scFv) scFv: EVQLVESGGGLVQPGGSLRLSCAASGFSFSDHYWMCWVRQAPGKGLEWVACIYTADSDSYYASWAKGRFTISKDSSKNTLYLQMNSLRAEDTAVYYCARNGAYAGGPYGDLWGQGTLVTVSGGGSGGGSGGGSGGGSDIQMTQSPSSLSASVGDRVTITCKASQSIRTSLVWYQQKPGKAPKLLIYKASDLPSGVPSRFSGSGSGTDFTLTISSLQPEDFATYYCQSYDFRDTINNGHSFGQGTKVEIKGSGSSGQPREPQVYTLPPSREEMTKNQVSLTCLVKGFYPSDIAVEWESQGSPENNYKTTPPVLDSDGSFFLYSKLTVDKSRWQQGNVFSCSVMHEALHNHYTQKSLSLSPGSSSSSSAWSHPQFEK', 0.14),
  ('scFv-minibody SEQ ID 37 (scFv) scFv: QSLEESGGDLVKPGASLTLTCTASGFSFSSGYDMCWVRQAPGKGLEWIACIDTDNDATYYASWAKGRFTISKPSSTTVLLQITSLTAADTATYFCATTHGDYVAFKLWGPGTLVTVSGGGSGGGSGGGSGGGSQVLTQTASSVSAAVGGTVTINCQSSQSVYKNNDLSWYQQKPRQPPKLLIYQASKLASGVPSRFKGSGSGTQFTLTIGDLESDDGATYYCAGGYTASIYAFGGGTEVVGSGSSGQPREPQVYTLPPSREEMTKNQVSLTCLVKGFYPSDIAVEWESQGSPENNYKTTPPVLDSDGSFFLYSKLTVDKSRWQQGNVFSCSVMHEALHNHYTQKSLSLSPGSSSSSSAWSHPQFEK', 0.118),
  ('APG101 (Fc fusion, UniProt P25445 26-173, looked up, not shown: a dimerising Fc or GST) QVTDINSKGLELRKTVTTVETQNLEGLHHDGQFCHKPCPPGERKARDCTVNGDEPDCVPCQEGKEYTDKAHFSSKCRRCRLCDEGHGLEVEINCTRTQNTKCRCKPNFFCNSTVCEHCDPCTKCEHGIIKECTLTSNTKCKEEGSRSN', 0.746),
  ('scFv-minibody SEQ ID 51 (scFv) scFv: EVQLVESGGGLVQPGGSLRLSCAASGFSFSDHYWMSWVRQAPGKGLEWVSAIYTADSDSYYADSVKGRFTISKDSSKNTLYLQMNSLRAEDTAVYYCARNGAYAGGPYGDLWGQGTLVTVSGGGSGGGSGGGSGGGSDIQMTQSPSSLSASVGDRVTITCKASQSIRTSLVWYQQKPGKAPKLLIYKASDLPSGVPSRFSGSGSGTDFTLTISSLQPEDFATYYCQSYDFRDTINNGHSFGQGTKVEIKGSGSSGQPREPQVYTLPPSREEMTKNQVSLTCLVKGFYPSDIAVEWESQGSPENNYKTTPPVLDSDGSFFLYSKLTVDKSRWQQGNVFSCSVMHEALHNHYTQKSLSLSPGSSSSSSAWSHPQFEK', 1.76),
  ('scFv-minibody SEQ ID 50 (scFv) scFv: EVQLVESGGGLVQPGGSLRLSCAASGFSFSDHYWMCWVRQAPGKGLEWVACIYTADSDSYYADSVKGRFTISKDSSKNTLYLQMNSLRAEDTAVYYCARNGAYAGGPYGDLWGQGTLVTVSGGGSGGGSGGGSGGGSDIQMTQSPSSLSASVGDRVTITCKASQSIRTSLVWYQQKPGKAPKLLIYKASDLPSGVPSRFSGSGSGTDFTLTISSLQPEDFATYYCQSYDFRDTINNGHSFGQGTKVEIKGSGSSGQPREPQVYTLPPSREEMTKNQVSLTCLVKGFYPSDIAVEWESQGSPENNYKTTPPVLDSDGSFFLYSKLTVDKSRWQQGNVFSCSVMHEALHNHYTQKSLSLSPGSSSSSSAWSHPQFEK', 0.143),
  ('scFv-minibody SEQ ID 38 (scFv) scFv: EVQLVESGGGLVQPGGSLRLSCAASGFSFSSGYDMCWVRQAPGKGLEWVACIDTDNDATYYASWAKGRFTISKDSSKNTLYLQMNSLRAEDTAVYYCARTHGDYVAFKLWGQGTLVTVSGGGSGGGSGGGSGGGSDIQMTQSPSSLSASVGDRVTITCQSSQSVYKNNDLSWYQQKPGKAPKLLIYQASKLASGVPSRFSGSGSGTDFTLTISSLQPEDFATYYCAGGYTASIYAFGQGTKVEIKGSGSSGQPREPQVYTLPPSREEMTKNQVSLTCLVKGFYPSDIAVEWESQGSPENNYKTTPPVLDSDGSFFLYSKLTVDKSRWQQGNVFSCSVMHEALHNHYTQKSLSLSPGSSSSSSAWSHPQFEK', 0.11);
